Form field: MIC (one value per entry).
System: Sporothrix schenckii
Assay: Antifungal activity against Sporothrix schenckii P20825 isolate from cutaneous-lymphatic sporotrichosis patient after 72 hrs by modified NCCLS M38-A method
Format: functional

compound	MIC
CCC(C)n1ncn(-c2ccc(N3CCN(c4ccc(OCC5COC(Cn6cncn6)(c6ccc(Cl)cc6Cl)O5)cc4)CC3)cc2)c1=O (centres undefined) [ITRACONAZOLE]	0.5 mg/L
C[C@@H](c1ncncc1F)[C@](O)(Cn1cncn1)c1ccc(F)cc1F [VORICONAZOLE]	8 mg/L
C[C@@H]1[C@H](O)[C@@H](C)/C=C/C=C/C=C/C=C/C=C/C=C/C=C/[C@H](O[C@@H]2O[C@H](C)[C@@H](O)[C@H](N)[C@@H]2O)C[C@@H]2O[C@](O)(C[C@@H](O)C[C@@H](O)[C@H](O)CC[C@@H](O)C[C@@H](O)CC(=O)O[C@H]1C)C[C@H](O)[C@H]2C(=O)O [AMPHOTERICIN B]	> 16 mg/L
OC(Cn1cncn1)(Cn1cncn1)c1ccc(F)cc1F [FLUCONAZOLE]	> 64 mg/L
